assay: ICB984 medulloblastoma cell growth inhibition, synergistic combos for chromothripsis tumors, cisplatin or BGB combos (AID 1671451); settings: ICB984 medulloblastoma cells, drug combinations, cisplatin combo, at 0.05 µM, stronger effect = higher value;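 also: cells exposed for 96 hours before readout; 0% = vehicle DMSO and 100% = killing by high DMSO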
Here the recorded inhibition is given for each entry.
Give the value, in units of %, as a plain number.

Reference set, count: 3
COMPOUND	inhibition (%)
O=C(O)CCCc1ccccc1	3.61
CCN(CC)CCCC(C)Nc1c2ccc(Cl)cc2nc2ccc(OC)cc12 (centres undefined)	90
O=c1[nH]cc(F)c(=O)[nH]1	5.15

Continue with the compound presented below.
# input compound: O=C1c2c(O)ccc(O)c2C(=O)c2c(NCCNCCO)ccc(NCCNCCO)c21 ; wanted: its inhibition 101

Origin of values: PubChem BioAssay
